Target: T1, Control-2 (C2), a laFc-containing fusion protein
T1 construct: Negative panning and ELISA control
Assay: phage supernatant ELISA, coated control protein, anti-HA HRP, A450-A650
quantityKind: OD value (OD)
All answers are understood in OD, so give the number only.

Examples from the recorded data:
• iGI-9 (VHH, Tested as supernatant of a helper-phage-rescued clone (pComb3XSS), detected by anti-HA tag) VHH: QVQLVESGGGLVQPGGSLRLSCETSKILFSSAYTMGWYRQAPGKQRELVATITTDYITNYVDSVKGRFTISRDNAKNTVYLQMNTLKLEDTAVYYCNARWGRDYWGQGTQVTVSS = 0.028
• iGI-72 (VHH, Tested as supernatant of a helper-phage-rescued clone (pComb3XSS), detected by anti-HA tag) VHH: QVQLVESGGGLVQPGGSLRLSCAASRYTLDYYAIGWFRQAPGKEREGVSCINSKDGSTYYADSVKGRFTISKDNAKNTVYLQMNSLKPEDTAVYYCAAGYDPWSGIPPVQAMCVMGYDYWGQGTQVTVSS = 0.077

stdin: What value of OD value has been recorded for this entry: iGI-1198 (VHH, Tested as supernatant of a helper-phage-rescued clone (pComb3XSS), detected by anti-HA tag) VHH: QVQLQESGGGLVQPGGSLRLSCVASGSGFSIVAMGWYRQTPGKQRELVAAITSGGNTNYADSVKGRFTISRDNAKNTIYLQMNSLKPEDTAVYYCNADPGVVAGPYAGMDFWGKGTQVTVSS
stdout: 0.027

stdin: Now the binder iGI-51 (VHH, Tested as supernatant of a helper-phage-rescued clone (pComb3XSS), detected by anti-HA tag) VHH: QVQLVESGGKLVQAGGSLRLDCVASGRTFSYYAIGWYRQAPGKEREFVAAIRASGGSTYYADSVKGRFTASRDNAKNTGYLQMNSLKPEDTAVYFCYAATIVPITPSTHGYWGQGTQVTVSS
stdout: 0.027

stdin: Now the binder iGI-27 (VHH, Tested as supernatant of a helper-phage-rescued clone (pComb3XSS), detected by anti-HA tag) VHH: QVQLVESGGALVQTGGSLRLFCAASGDTICITNMNWYRQAPGKGREFVAAITRSGRTLYADYVKGRFTISRDNARNTMSLQMNSMTSEDTAVYYCNADQNQTICAAEPSAWGRGTQVTVSS
stdout: 0.023

stdin: Now the binder iGI-44 (VHH, Tested as supernatant of a helper-phage-rescued clone (pComb3XSS), detected by anti-HA tag) VHH: QVQLVESGGGLVQAGGSLKLSCAASGRTFSSKAMGWFRQAPGKEREFVAAINWSGDRTYHVNSIKGRFTISRDNAKNTVYLQMNSLKPEDTAVYYCTADRRDRATIPFQWHYWGQGTQVTVSS
stdout: 0.023

Value source: patent US20260176344A1
